- Assay Remarks: chemical genetic growth profiling, strain panel (AID 1159580);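 also: tested at 20 µM; growth read once vehicle control cultures reached saturation at 30 °C; 1 = growth at the plate median or of vehicle wells; lower values mean less growth of the strain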
- Protocol Conditions: S. cerevisiae deletion strains, growth OD, locus YGL248W, strain PDE1, hits give low values
About 2,000 (36%) of roughly 5,500 compounds were called active. Inconclusive results (about 18%) are left out. The list shows a part of the results.
Give measured normalized growth for each item. Keep answers brief.
Output: the number by itself.

*Q* Could you share which normalized growth value was measured for NC(=O)NCC(N)C(=O)O (configuration not stated) ?
*A* 1.02

*Q* Request: CC(=O)O[C@@H]1CC2C(C)(C)C(=O)C=C[C@]2(C)C2CC[C@@]3(C)[C@H](c4ccoc4)OC(=O)[C@H]4O[C@]43[C@@]21C (some centres not stated)
*A* 1

*Q* Request: `CCCCOc1cc(C(=O)NCCN(CC)CC)c2ccccc2n1`
*A* 0.999

*Q* Request: CCCCCCC(C)OC(=O)COc1ccc(Cl)cc1Cl (configuration not stated)
*A* 0.991

*Q* Request: CC(=O)Oc1ccc2c(c1C(C)C)CCC1C(C)(C)CCC[C@]21C (some centres not stated)
*A* 1.02

*Q* Request: CC(CC(O)C1OC1(C)C)[C@@H]1CCC2(C)C3=CCC4C(C)(C)C(=O)CCC4(C)C3CC[C@@]12C (some centres not stated)
*A* 1.03

*Q* Request: `CCN1C[C@]2(C)CC[C@H](OC)[C@]34C2[C@H](O)[C@]2(OCO[C@@]25C[C@H](OC)[C@H]2C[C@]3(O)C5[C@H]2O)C14`
*A* 1

*Q* Request: COC(=O)C[C@H]1C(C)(C)C2(Cl)O[C@@]34CC2C(=O)[C@]1(C)C3CC[C@]1(C)C4=CC(=O)O[C@H]1c1ccoc1 (some centres not stated)
*A* 1

*Q* Request: `CCc1cc(C(N)=S)ccn1`
*A* 0.989

*Q* Request: `CC1(C)O[C@H]2CC(=O)OC[C@]23[C@H]2CC[C@@]4(C)[C@H](c5ccoc5)OC(=O)[C@H]5O[C@]54[C@]2(C)C(=O)C[C@@H]13`
*A* 1.02

*Q* Request: `CCc1cccc(CC)c1N(COC)C(=O)CCl`
*A* 1.01

*Q* Request: CC1(C)C2CC(=O)[C@]3(C)C(CC[C@@]4(C)[C@H](c5ccoc5)OC(=O)[C@H]5O[C@]543)[C@@]2(C)C(=O)C[C@H]1O (some centres not stated)
*A* 1.03

*Q* Request: CC(C)C1COc2cc3oc(=O)ccc3cc2O1 (configuration not stated)
*A* 0.257

*Q* Request: Oc1ccc2c(c1)OCC1(O)Cc3cc(O)c(O)cc3C21 (configuration not stated)
*A* 0.989

*Q* Request: Oc1cc2c(cc1O)C1c3ccc(O)c(O)c3OCC1(O)C2 (configuration not stated)
*A* 0.893

*Q* Request: C[C@@H]1O[C@@H](OC[C@H]2OC(Oc3c(-c4ccc(O)c(O)c4)oc4cc(O)cc(O)c4c3=O)[C@H](O)[C@@H](O)[C@@H]2O)[C@H](O)[C@H](O)[C@H]1O (some centres not stated)
*A* 1.03

*Q* Request: COc1ccc2c3c1OC1C(O)CC=C4C(C2)N(C)CCC431 (configuration not stated)
*A* 1.02

*Q* Request: CC(C)c1c(O)ccc2c1CCC1[C@@](C)(CO)CCC[C@]21C (some centres not stated)
*A* 0.924

*Q* Request: CC1(C)C(=O)C=C[C@@]2(C)C1C[C@@H](O)[C@]1(C)C2CC[C@@]2(C)[C@H](c3ccoc3)OC(=O)[C@H]3O[C@]321 (some centres not stated)
*A* 0.961

*Q* Request: CC(=O)Oc1ccc2c(c1OC(C)=O)OCC1(O)Cc3c(cc(OC(C)=O)c(OC(C)=O)c3OC(C)=O)C21 (configuration not stated)
*A* 0.965

*Q* Request: `C[C@@H]([C@H](O)c1ccccc1)N(C)C`
*A* 1

*Q* Request: `CCCCCc1c2c(cc(O)c1C(=O)O)OC(=O)c1c(cc(OC)cc1C(=O)CCCC)O2`
*A* 0.99

*Q* Request: `CN1C(C)(C)CCCC1(C)C`
*A* 1.03

*Q* Request: `O=C(O)C1=C[C@@H](O)[C@@H](O)[C@H](O)C1`
*A* 1.03

*Q* Request: CC1O[C@@H](Oc2c(-c3ccc(O)c(O)c3)oc3cc(O)cc(O)c3c2=O)[C@H](O)[C@H](O)[C@H]1O (some centres not stated)
*A* 1

*Q* Request: O=C1C=C2C(=CCOC2O)O1 (configuration not stated)
*A* 0.883

*Q* Request: CCCCC1C(=O)N(c2ccccc2)N(c2ccc(O)cc2)C1=O (configuration not stated)
*A* 0.97

*Q* Request: `NC(=O)CN1CCCC1=O`
*A* 0.994

*Q* Request: CC(C)c1c(O)c(-c2cc3c(c(C(C)C)c2O)CCC2C(C)(C)CCC[C@]32C)cc2c1CCC1C(C)(C)CCC[C@]21C (some centres not stated)
*A* 1.02

*Q* Request: CN[C@@H]1C(O)[C@@H](O[C@@H]2[C@@H](O)[C@H](O[C@H]3OC(CN)=CC[C@H]3N)[C@@H](N)C[C@H]2N)OC[C@]1(C)O (some centres not stated)
*A* 1.03

*Q* Request: CC(C1OC(C)(C)C(O)C1O)[C@@H]1CC[C@]2(C)C3=CCC4C(C)(C)C(=O)CC[C@]4(C)C3CC[C@@]12C (some centres not stated)
*A* 0.97

*Q* Request: `C=C(C)[C@H]1COc2cc3oc(=O)ccc3cc2O1`
*A* 0.385

*Q* Request: CC(C)c1c(O)ccc2c1CCC1C(C)(C)CCC[C@]21C (some centres not stated)
*A* 0.113

*Q* Request: COC(=O)[C@]1(C)CCC[C@]2(C)c3ccc(C(C)C)cc3C(=O)CC12 (some centres not stated)
*A* 0.971

*Q* Request: CC1(C)C2CC(=O)[C@]3(C)C(CC[C@@]4(C)[C@H](c5ccoc5)OC(=O)C5OC543)[C@@]2(C)[C@@H](O)C[C@H]1O (some centres not stated)
*A* 1.06

*Q* Request: `CC(=O)OCC1=C(C(=O)O)N2C(=O)[C@@H](NC(=O)Cc3cccs3)[C@H]2SC1`
*A* 1.01

*Q* Request: `COc1ccc(-c2oc3cc(O[C@H]4O[C@H](CO)[C@@H](O)[C@H](O)[C@H]4O)c(OC)c(O)c3c(=O)c2OC)cc1O`
*A* 0.984

----------
- Assay Remarks: chemical genetic growth profiling, strain panel (AID 1159580);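 also: tested at 20 µM; growth read once vehicle control cultures reached saturation at 30 °C; 1 = growth at the plate median or of vehicle wells; lower values mean less growth of the strain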
- Protocol Conditions: S. cerevisiae deletion strains, growth OD, locus YOL006C, strain TOP1, hits give low values
The campaign covered roughly 5,500 compounds. About 2,000 (36%) were called active. Roughly 18% stayed inconclusive and do not appear here. This is one part of the list.
Value Type: normalized growth
Output: the number by itself.

*Q* Could you share which normalized growth value was measured for CC(=O)O[C@@H]1CC2C(C)(C)C(=O)C=C[C@]2(C)C2CC[C@@]3(C)[C@H](c4ccoc4)OC(=O)[C@H]4O[C@]43[C@@]21C (stereo partly drawn) ?
*A* 1.01

*Q* Request: `CCN(CC)C(=O)c1[nH]c(C)c(C)c1C`
*A* 1.04

*Q* Request: CC1(C)C(=O)C=C[C@@]2(C)C1CC(=O)[C@]1(C)C2CC[C@@]2(C)[C@H](c3ccoc3)OC(=O)[C@H]3O[C@]321 (stereo partly drawn)
*A* 0.987

*Q* Request: CC1(C)C=CC(=O)[C@@]2(C)C1CC(=O)[C@]1(C)C2CC[C@@]2(C)[C@H](c3ccoc3)OC(=O)C3OC321 (stereo partly drawn)
*A* 0.813

*Q* Request: CC(=O)O[C@@H]1CC(=O)[C@@]2(C)C(CC(=O)[C@]3(C)C2CC[C@@]2(C)[C@H](c4ccoc4)OC(=O)C4OC423)C1(C)C (stereo partly drawn)
*A* 0.912

*Q* Request: `CC1(C)O[C@H]2CC(=O)OC[C@]23[C@H]2CC[C@@]4(C)[C@H](c5ccoc5)OC(=O)[C@H]5O[C@]54[C@]2(C)C(=O)C[C@@H]13`
*A* 0.922

*Q* Request: CC(=O)OC1CN2CCC1CC2 (stereo not drawn)
*A* 1.04

*Q* Request: `CSc1cccc(NC(=S)N=CN(C)C)c1`
*A* 0.393

----------
- Assay Remarks: chemical genetic growth profiling, strain panel (AID 1159580);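 also: tested at 20 µM; growth read once vehicle control cultures reached saturation at 30 °C; 1 = growth at the plate median or of vehicle wells; lower values mean less growth of the strain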
- Protocol Conditions: S. cerevisiae deletion strains, growth OD, locus YNL209W, strain ssb2, hits give low values
In all, about 5,500 compounds went through this assay and about 2,000 (36%) were called active. Not shown: some 18% with an inconclusive outcome. Some of the results follow.
Value Type: normalized growth
Output: the number by itself.

*Q* Could you share which normalized growth value was measured for CC(C)c1c(O)ccc2c1CCC1[C@@](C)(CO)CCC[C@]21C (stereo partly drawn) ?
*A* 1.02

*Q* Request: `O=C(O[C@@H]1Cc2c(O)cc(O)cc2O[C@@H]1c1cc(O)c(=O)c2c(O)c(O)cc([C@H]3Oc4cc(O)cc(O)c4C[C@H]3OC(=O)c3cc(O)c(O)c(O)c3)c2c1)c1cc(O)c(O)c(O)c1`
*A* 0.149

*Q* Request: CC(C)c1c(O)ccc2c1CCC1[C@@](C)(C=O)CCC[C@]21C (stereo partly drawn)
*A* 0.959

*Q* Request: `O=C(O[C@@H]1Cc2c(O)cc(O)cc2O[C@@H]1c1cc(O)c(=O)c2c(O)c(O)cc([C@H]3Oc4cc(O)cc(O)c4C[C@H]3O)c2c1)c1cc(O)c(O)c(O)c1`
*A* 0.141

*Q* Request: `NC(=O)CN1CCCC1=O`
*A* 0.998

*Q* Request: `CCCCCCCCCCCC1=C(O)C(=O)C=C(O)C1=O`
*A* 0.61

*Q* Request: OC1CC2CCCC(C1)N2Cc1ccccc1 (stereo not drawn)
*A* 1

*Q* Request: O=C(OC1Cc2c(O)cc(O)cc2OC1c1cc(=O)c(O)c2c(O)c(O)cc(C3Oc4cc(O)cc(O)c4CC3O)c2c1)c1cc(O)c(O)c(O)c1 (stereo not drawn)
*A* 0.749
